# inhibition per entry
# Test system: Human T-cell leukemia virus type I
# Assay procedure: Inhibition of human recombinant HTLV1 protease at 100 uM
*1 amine or outer side, *2 acyl side, *3 side chain or, on linkers, in order; H or OH if unused. Where a SMILES comes first, the peptide text is derived from it. [ ]: non-standard residue; d: D form. X1 = O=C([C@@H](O)[C@H](Cc1ccccc1)N[*:1])[*:2]; Thz(5,5-Me2) = CC1(C)SCN[C@@H]1C(=O)O
Provide only the numeric value, understood in %.

INSERT INTO assay_data (compound, reported_metric, val) VALUES
  ('CC[C@H](C)[C@H](NC(C)=O)C(=O)N[C@H](C(=O)N[C@@H](Cc1ccccc1)[C@H](O)C(=O)N1CSC(C)(C)[C@H]1C(=O)N[C@H](C(=O)N[C@@H](CCSC)C(N)=O)[C@@H](C)CC)[C@@H](C)CC (Ac-II[X1][Thz(5,5-Me2)]IM-NH2)', 'inhibition', 94);

Query compound follows.
Query string: Form entry - test system: Human T-cell leukemia virus type I; read-out: inhibition; compound: CSCC[C@H](NC(=O)[C@@H](NC(=O)[C@H]1N(C(=O)[C@@H](O)[C@H](Cc2ccccc2)NC(=O)[C@@H](NC(=O)[C@H](C)NC(C)=O)C(C)C)CSC1(C)C)C(C)C)C(N)=O (Ac-AV[X1][Thz(5,5-Me2)]VM-NH2)
Result string: 56

====

# System: Human immunodeficiency virus 1
# Assay procedure: Inhibition of recombinant HIV1 protease at 50 nM
*1 amine or outer side, *2 acyl side, *3 side chain or, on linkers, in order; H or OH if unused. Where a SMILES comes first, the peptide text is derived from it. [ ]: non-standard residue; d: D form. X1 = O=C([C@@H](O)[C@H](Cc1ccccc1)N[*:1])[*:2]; Thz(5,5-Me2) = CC1(C)SCN[C@@H]1C(=O)O
Reported metric: inhibition (%)
Provide only the numeric value, understood in %.

Query string: Look up inhibition for this compound: CSCC[C@H](NC(=O)[C@@H](NC(=O)[C@H]1N(C(=O)[C@@H](O)[C@H](Cc2ccccc2)NC(=O)[C@@H](NC(=O)[C@@H](NC(C)=O)C(C)C)C(C)C)CSC1(C)C)C(C)C)C(N)=O (Ac-VV[X1][Thz(5,5-Me2)]VM-NH2)
Result string: 95

====

# Tested on: Human T-cell leukemia virus type I
# Assay procedure: Inhibition of human recombinant HTLV1 protease at 100 uM
*1 amine or outer side, *2 acyl side, *3 side chain or, on linkers, in order; H or OH if unused. Where a SMILES comes first, the peptide text is derived from it. [ ]: non-standard residue; d: D form. X1 = O=C([C@@H](O)[C@H](Cc1ccccc1)N[*:1])[*:2]; Thz(5,5-Me2) = CC1(C)SCN[C@@H]1C(=O)O
Reported metric: inhibition (%)
Provide only the numeric value, understood in %.

INSERT INTO results (molecule, measurement_target, unit, val) VALUES
  ('CC[C@H](C)[C@H](NC(C)=O)C(=O)N[C@H](C(=O)N[C@@H](Cc1ccccc1)[C@H](O)C(=O)N1CSC(C)(C)[C@H]1C(=O)N[C@H](C(=O)N[C@H](C(N)=O)C(C)C)C(C)C)C(C)C (Ac-IV[X1][Thz(5,5-Me2)]VV-NH2)', 'Human T-cell leukemia virus type I', '%', 70),
  ('CC[C@H](C)[C@H](NC(C)=O)C(=O)N[C@H](C(=O)N[C@@H](Cc1ccccc1)[C@H](O)C(=O)N1CSC(C)(C)[C@H]1C(=O)N[C@H](C(=O)N[C@@H](CCC(N)=O)C(N)=O)C(C)C)C(C)C (Ac-IV[X1][Thz(5,5-Me2)]VQ-NH2)', 'Human T-cell leukemia virus type I', '%', 86);

Query molecule follows.
Query string: Look up inhibition for this molecule: CC[C@H](C)[C@H](NC(=O)[C@H]1N(C(=O)[C@@H](O)[C@H](Cc2ccccc2)NC(=O)[C@@H](NC(=O)[C@H](CCC(N)=O)NC(C)=O)C(C)C)CSC1(C)C)C(=O)N[C@@H](CCSC)C(N)=O (Ac-QV[X1][Thz(5,5-Me2)]IM-NH2)
Result string: 74

====

# inhibition per entry
# Tested on: Human immunodeficiency virus 1
# Assay procedure: Inhibition of recombinant HIV1 protease at 50 nM
*1 amine or outer side, *2 acyl side, *3 side chain or, on linkers, in order; H or OH if unused. Where a SMILES comes first, the peptide text is derived from it. [ ]: non-standard residue; d: D form. The star is where a group is joined. X1 = O=C([C@@H](O)[C@H](Cc1ccccc1)N[*:1])[*:2]; Thz(5,5-Me2) = CC1(C)SCN[C@@H]1C(=O)O; X2 = N[C@@H](Cc1ccccc1)[C@H](O)C(=O)*

Worked examples follow.
INSERT INTO measurements (compound, reported_metric, val) VALUES
  ('CSCC[C@H](NC(=O)[C@@H](NC(=O)[C@@H]1CCCN1C(=O)[C@@H](O)[C@@H](N)Cc1ccccc1)C(C)C)C(=O)N[C@@H](Cc1c[nH]cn1)C(=O)O (X2-PVMH-OH)', 'inhibition', '< 30%'),
  ('CC[C@H](C)[C@H](NC(C)=O)C(=O)N[C@H](C(=O)N[C@@H](Cc1ccccc1)[C@H](O)C(=O)N1CSC(C)(C)[C@H]1C(=O)N[C@H](C(=O)N[C@H](C(N)=O)C(C)C)C(C)C)C(C)C (Ac-IV[X1][Thz(5,5-Me2)]VV-NH2)', 'inhibition', '96%'),
  ('CSCC[C@H](NC(=O)[C@@H](NC(=O)[C@H]1N(C(=O)[C@@H](O)[C@H](Cc2ccccc2)NC(=O)[C@@H](NC(=O)[C@H](CCC(N)=O)NC(C)=O)C(C)C)CSC1(C)C)C(C)C)C(N)=O (Ac-QV[X1][Thz(5,5-Me2)]VM-NH2)', 'inhibition', '96%');

Query compound follows.
Query string: Look up inhibition for this compound: CSCC[C@H](NC(=O)[C@@H](NC(=O)[C@H]1N(C(=O)[C@@H](O)[C@H](Cc2ccccc2)NC(=O)[C@@H](NC(=O)[C@H](C)NC(C)=O)C(C)C)CSC1(C)C)C(C)C)C(N)=O (Ac-AV[X1][Thz(5,5-Me2)]VM-NH2)
Result string: 96%

====

# inhibition per entry
# Tested on: Human T-cell leukemia virus type I
# Assay procedure: Inhibition of human recombinant HTLV1 protease at 100 uM
*1 amine or outer side, *2 acyl side, *3 side chain or, on linkers, in order; H or OH if unused. Where a SMILES comes first, the peptide text is derived from it. [ ]: non-standard residue; d: D form. X1 = O=C([C@@H](O)[C@H](Cc1ccccc1)N[*:1])[*:2]; Thz(5,5-Me2) = CC1(C)SCN[C@@H]1C(=O)O
Provide only the numeric value, understood in %.

INSERT INTO measurements (compound, val) VALUES
  ('CSCC[C@H](NC(=O)[C@@H](NC(=O)[C@H]1N(C(=O)[C@@H](O)[C@H](Cc2ccccc2)NC(=O)[C@H](CSC)NC(=O)[C@H](CCC(N)=O)NC(C)=O)CSC1(C)C)C(C)C)C(N)=O (Ac-QC(Me)[X1][Thz(5,5-Me2)]VM-NH2)', 51);

Query compound follows.
Query string: Look up inhibition for this compound: CC[C@H](C)[C@H](NC(=O)[C@H](CCC(N)=O)NC(C)=O)C(=O)N[C@@H](Cc1ccccc1)[C@H](O)C(=O)N1CSC(C)(C)[C@H]1C(=O)N[C@H](C(=O)N[C@@H](CCSC)C(N)=O)C(C)C (Ac-QI[X1][Thz(5,5-Me2)]VM-NH2)
Result string: 85

====

# Tested on: Human immunodeficiency virus 1
# Assay procedure: Inhibition of recombinant HIV1 protease at 50 nM
*1 amine or outer side, *2 acyl side, *3 side chain or, on linkers, in order; H or OH if unused. Where a SMILES comes first, the peptide text is derived from it. [ ]: non-standard residue; d: D form. X1 = O=C([C@@H](O)[C@H](Cc1ccccc1)N[*:1])[*:2]; Thz(5,5-Me2) = CC1(C)SCN[C@@H]1C(=O)O
Reported metric: inhibition

Worked examples follow.
INSERT INTO measurements (compound, val) VALUES
  ('CC[C@H](C)[C@H](NC(C)=O)C(=O)N[C@H](C(=O)N[C@@H](Cc1ccccc1)[C@H](O)C(=O)N1CSC(C)(C)[C@H]1C(=O)N[C@H](C(=O)N[C@@H](CC(C)C)C(N)=O)C(C)C)C(C)C (Ac-IV[X1][Thz(5,5-Me2)]VL-NH2)', '95%'),
  ('CSCC[C@H](NC(=O)[C@@H](NC(=O)[C@@H]1CCCN1C(=O)[C@@H](O)[C@H](Cc1ccccc1)NC(=O)[C@@H](NC(C)=O)C(C)C)C(C)C)C(=O)N[C@@H](Cc1c[nH]cn1)C(=O)O (Ac-V[X1]PVMH-OH)', '< 30%'),
  ('CC[C@H](C)[C@H](NC(=O)[C@H](CCC(N)=O)NC(C)=O)C(=O)N[C@@H](Cc1ccccc1)[C@H](O)C(=O)N1CSC(C)(C)[C@H]1C(=O)N[C@H](C(=O)N[C@@H](CCSC)C(N)=O)C(C)C (Ac-QI[X1][Thz(5,5-Me2)]VM-NH2)', '95%');

Query string: Look up inhibition for this compound: CSCC[C@H](NC(=O)[C@@H](NC(=O)[C@@H]1CCCN1C(=O)[C@@H](O)[C@H](Cc1ccccc1)NC(C)=O)C(C)C)C(=O)N[C@@H](Cc1c[nH]cn1)C(=O)O (Ac-[X1]PVMH-OH)
Result string: < 30%
